Here, each record is paired with measured melting point data.

// melting point lookup, key: Cc1ccc(Oc2ccc(C(F)(F)F)cc2Cl)cc1C(=O)O
113 °C

Report melting point for CCOCc1nc2c(N)nc3ccccc3c2n1CC1CCN(C)C(=O)O1 (centres undefined) please.
192 to 194 °C

Value lookup for melting point; key = CCC(C)(C(=O)N(C)C)n1cc(C)c(-c2ccccc2)n1 (centres undefined)
102 to 104 °C

Can you look up the measured melting point of Cc1nc(N2CCc3ccccc3CC2)c(C#N)c(=O)[nH]1 for me?
> 200 °C

###

measured attribute: melting point

Which melting point value belongs to CCc1cn(C2CC(OC(C)=O)C(CN(C)C(=O)Cc3ccccc3Br)O2)c(=O)[nH]c1=O (centres undefined) ?
170 °C

Fill in the blank: the reported melting point of CCOc1ccc(C(=O)C2CC=CCC2C(=O)O)cc1Cl (centres undefined) is ____.
123 to 125 °C

I have this molecule here, CN(C)CCCNC(=O)c1ccc(/C=C/c2ccc3c(=O)[nH]ncc3c2)cc1 , and I need its recorded melting point.
287 °C

Continuing:
Which melting point reading was recorded for the molecule Cc1ccc(C(=O)NCCO)c(Nc2ccc3cn[nH]c3c2)n1 ?
217 to 220 °C

Report melting point for O=C1N(Cc2ncccc2C(F)(F)F)c2ccccc2C12COc1cc3c(cc12)OC(F)(F)O3 (centres undefined) please.
200 to 201 °C

Entry source: a melting point compilation (Tetko et al.; mined from patent text by program, amines drawn as free bases though some values may be those of a salt)
